property_label: IC50 (µM)
Could you give me the number in µM? Just the number is fine.

Give Tyrosine-protein kinase JAK2 (Homo sapiens, UniProt O60674) IC50 for NC(=O)c1cnc(N[C@H]2CC[C@H](N)CC2)c2nc(-c3ccc(Cl)cc3)cn12
13

----------
target: Casein kinase I isoform delta (Homo sapiens, UniProt P48730); test: Inhibition of human CSNK1D
Sequence (P48730 whole entry, canonical isoform): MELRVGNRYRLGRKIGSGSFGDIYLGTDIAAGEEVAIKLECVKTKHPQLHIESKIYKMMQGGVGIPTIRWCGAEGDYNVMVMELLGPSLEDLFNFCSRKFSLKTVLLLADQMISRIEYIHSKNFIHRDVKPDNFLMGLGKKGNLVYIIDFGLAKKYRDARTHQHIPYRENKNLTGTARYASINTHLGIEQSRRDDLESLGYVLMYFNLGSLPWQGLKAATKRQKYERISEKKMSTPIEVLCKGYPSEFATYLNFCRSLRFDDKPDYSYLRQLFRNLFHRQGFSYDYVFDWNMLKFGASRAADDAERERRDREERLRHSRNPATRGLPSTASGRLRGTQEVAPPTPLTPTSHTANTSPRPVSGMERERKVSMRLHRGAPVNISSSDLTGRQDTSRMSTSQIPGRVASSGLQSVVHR
property_label: IC50 (µM)
Could you give me the number in µM? Just the number is fine.

Endpoint output: IC50 of NC(=O)c1cnc(N[C@H]2CC[C@H](N)CC2)c2nc(-c3ccc(Cl)cc3)cn12 . Value?
12

----------
target: Tyrosine-protein kinase Lck (Homo sapiens)
Sequence (P06239 whole entry): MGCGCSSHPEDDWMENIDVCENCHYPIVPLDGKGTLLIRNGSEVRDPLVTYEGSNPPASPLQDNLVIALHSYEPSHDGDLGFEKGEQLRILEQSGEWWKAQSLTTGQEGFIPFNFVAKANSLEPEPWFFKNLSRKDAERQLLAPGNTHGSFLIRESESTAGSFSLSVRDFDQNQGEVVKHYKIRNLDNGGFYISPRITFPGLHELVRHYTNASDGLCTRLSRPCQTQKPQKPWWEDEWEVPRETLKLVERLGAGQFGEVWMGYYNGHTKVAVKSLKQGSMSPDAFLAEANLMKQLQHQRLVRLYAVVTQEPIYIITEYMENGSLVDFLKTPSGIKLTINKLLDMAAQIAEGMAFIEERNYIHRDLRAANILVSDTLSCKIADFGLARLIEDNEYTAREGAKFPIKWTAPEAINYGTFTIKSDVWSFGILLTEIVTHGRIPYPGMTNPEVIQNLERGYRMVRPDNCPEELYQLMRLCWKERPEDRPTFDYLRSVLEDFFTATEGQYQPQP
property_label: IC50

Endpoint output: IC50 of NC(=O)c1cnc(N[C@H]2CC[C@H](N)CC2)c2nc(-c3ccc(Cl)cc3)cn12 . Value?
1000 nM

----------
I'd be grateful if you could share measured inhibition for these entries.
target: MAP kinase-activated protein kinase 2 (Homo sapiens, UniProt P49137); experiment: Inhibition of human recombinant MK2 at 10 uM
Sequence (P49137 whole entry, looked up): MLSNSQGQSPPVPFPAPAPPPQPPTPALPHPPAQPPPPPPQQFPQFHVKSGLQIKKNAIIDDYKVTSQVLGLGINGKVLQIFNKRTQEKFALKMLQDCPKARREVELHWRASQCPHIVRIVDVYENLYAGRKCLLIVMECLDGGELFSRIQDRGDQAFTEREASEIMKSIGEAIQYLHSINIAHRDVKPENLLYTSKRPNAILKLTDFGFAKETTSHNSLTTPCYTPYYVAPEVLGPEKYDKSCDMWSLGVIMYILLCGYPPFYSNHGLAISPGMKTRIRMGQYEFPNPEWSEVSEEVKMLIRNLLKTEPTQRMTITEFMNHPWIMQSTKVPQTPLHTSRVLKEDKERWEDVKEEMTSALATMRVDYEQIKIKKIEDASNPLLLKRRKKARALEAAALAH
Number plus unit, in that order.

Endpoint output: inhibition of NC(=O)c1cnc(N[C@@H]2CCNC2)n2cc(-c3ccc(Cl)cc3)nc12 . Value?
56%

Endpoint output: inhibition of CN1CCC(Nc2ncc(C(N)=O)c3nc(-c4ccc(Cl)cc4)cn23)CC1 . Value?
69%

Endpoint output: inhibition of NC(=O)c1cnc(NCC2CCCNC2)n2cc(-c3ccc(Cl)cc3)nc12 (centres undefined) . Value?
61%

Endpoint output: inhibition of NC(=O)c1cnc(N[C@H]2CCCNC2)n2cc(-c3ccc(Cl)cc3)nc12 . Value?
67%

----------
Biological target: Serine/threonine-protein kinase Chk1 (Homo sapiens, UniProt O14757)
Sequence (O14757 whole entry): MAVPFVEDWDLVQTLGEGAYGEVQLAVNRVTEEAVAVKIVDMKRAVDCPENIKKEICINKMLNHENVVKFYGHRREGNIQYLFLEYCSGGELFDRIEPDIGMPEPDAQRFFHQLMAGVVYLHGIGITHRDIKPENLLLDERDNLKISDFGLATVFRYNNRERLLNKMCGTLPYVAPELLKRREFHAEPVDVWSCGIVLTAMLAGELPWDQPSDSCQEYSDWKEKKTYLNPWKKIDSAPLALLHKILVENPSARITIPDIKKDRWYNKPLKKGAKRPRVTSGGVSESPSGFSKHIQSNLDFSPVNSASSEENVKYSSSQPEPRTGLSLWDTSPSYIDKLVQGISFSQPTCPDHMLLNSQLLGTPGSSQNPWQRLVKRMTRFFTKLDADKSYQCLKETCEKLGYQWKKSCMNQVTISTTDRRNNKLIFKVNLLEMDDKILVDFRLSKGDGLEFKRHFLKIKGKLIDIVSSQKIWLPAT
property_label: IC50
Number plus unit, in that order.

Endpoint output: IC50 of NC(=O)c1ncc(N[C@H]2CCCNC2)c2nc(-c3ccc(Cl)cc3)cn12 . Value?
18 nM

Endpoint output: IC50 of NC(=O)c1cnc(NCC2CCCNC2)n2cc(-c3ccc(Cl)cc3)nc12 (stereo not given) . Value?
50000 nM

Endpoint output: IC50 of NCCCNc1ncc(C(N)=O)n2cc(-c3ccc(Cl)cc3)nc12 . Value?
290 nM

Endpoint output: IC50 of NC(=O)c1cnc(N[C@H]2CC[C@H](N)CC2)n2cc(-c3ccc(Cl)cc3)nc12 . Value?
50000 nM

Endpoint output: IC50 of NC(=O)c1cnc(N[C@H]2CCCNC2)c2nc(-c3ccc(F)cc3)cn12 . Value?
27 nM

----------
I'd be grateful if you could share measured IC50 for these entries.
molecular target: MAP kinase-activated protein kinase 2 (Homo sapiens); assay: Inhibition of human recombinant MK2
Sequence (P49137 whole entry): as the sequence (P49137 whole entry, looked up) above
Could you give me the number in nM? Just the number is fine.

Give MAP kinase-activated protein kinase 2 (Homo sapiens) IC50 for NC(=O)c1cnc(N[C@H]2CC[C@@H](N)CC2)c2nc(-c3ccc(Cl)cc3)cn12
1900

Give MAP kinase-activated protein kinase 2 (Homo sapiens) IC50 for NC(=O)c1cnc(N[C@H]2CCCNC2)c2nc(-c3ccc(F)cc3)cn12
910

Give MAP kinase-activated protein kinase 2 (Homo sapiens) IC50 for NC(=O)c1ncc(N[C@H]2CCCNC2)c2nc(-c3ccc(Cl)cc3)cn12
840

Give MAP kinase-activated protein kinase 2 (Homo sapiens) IC50 for NC(=O)c1cnc(N[C@H]2CC[C@H](N)CC2)n2cc(-c3ccc(Cl)cc3)nc12
4000

Give MAP kinase-activated protein kinase 2 (Homo sapiens) IC50 for CN[C@H]1CC[C@H](Nc2ncc(C(N)=O)n3cc(-c4ccc(Cl)cc4)nc23)CC1
400

Give MAP kinase-activated protein kinase 2 (Homo sapiens) IC50 for NC(=O)c1cnc(NC2CCNCC2)c2nc(-c3ccc(Cl)cc3)cn12
4150

Give MAP kinase-activated protein kinase 2 (Homo sapiens) IC50 for NC(=O)c1cnc(N[C@H]2CC[C@H](N)CC2)c2nc(-c3ccc(Cl)c(Cl)c3)cn12
820

Give MAP kinase-activated protein kinase 2 (Homo sapiens) IC50 for NC(=O)c1ncc(N[C@H]2CC[C@H](N)CC2)c2nc(-c3ccc(Cl)cc3)cn12
1980

Give MAP kinase-activated protein kinase 2 (Homo sapiens) IC50 for NC(=O)c1cnc(Nc2cccnc2)c2nc(-c3ccc(Cl)cc3)cn12
10000

Give MAP kinase-activated protein kinase 2 (Homo sapiens) IC50 for NC(=O)c1cnc(N[C@H]2CCCNC2)c2nc(-c3ccc4ccccc4c3)cn12
910

Give MAP kinase-activated protein kinase 2 (Homo sapiens) IC50 for NCCCNc1ncc(C(N)=O)n2cc(-c3ccc(Cl)cc3)nc12
4090

----------
Target: Inhibitor of nuclear factor kappa-B kinase subunit beta (Homo sapiens)
Sequence (O14920 whole entry): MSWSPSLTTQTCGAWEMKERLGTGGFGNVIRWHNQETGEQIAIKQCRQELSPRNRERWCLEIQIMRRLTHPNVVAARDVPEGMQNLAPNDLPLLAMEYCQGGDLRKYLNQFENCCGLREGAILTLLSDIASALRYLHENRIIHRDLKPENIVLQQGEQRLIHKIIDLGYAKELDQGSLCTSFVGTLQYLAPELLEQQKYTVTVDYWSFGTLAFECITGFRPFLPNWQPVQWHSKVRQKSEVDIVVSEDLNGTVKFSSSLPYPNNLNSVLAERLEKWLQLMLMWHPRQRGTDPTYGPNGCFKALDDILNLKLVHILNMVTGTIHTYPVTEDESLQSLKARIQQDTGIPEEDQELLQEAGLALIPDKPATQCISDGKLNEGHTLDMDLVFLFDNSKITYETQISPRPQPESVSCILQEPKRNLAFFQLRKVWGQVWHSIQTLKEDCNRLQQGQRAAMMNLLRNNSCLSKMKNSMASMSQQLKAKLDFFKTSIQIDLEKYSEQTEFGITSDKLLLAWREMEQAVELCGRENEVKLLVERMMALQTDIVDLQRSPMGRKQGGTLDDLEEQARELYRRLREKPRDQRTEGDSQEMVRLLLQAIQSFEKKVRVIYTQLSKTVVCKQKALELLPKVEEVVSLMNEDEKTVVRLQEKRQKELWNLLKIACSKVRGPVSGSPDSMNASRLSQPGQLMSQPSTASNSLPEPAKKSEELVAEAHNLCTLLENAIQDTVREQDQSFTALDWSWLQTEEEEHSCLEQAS
Test: Inhibition of human IKKB
property_label: IC50

Give Inhibitor of nuclear factor kappa-B kinase subunit beta (Homo sapiens) IC50 for NC(=O)c1cnc(N[C@H]2CC[C@H](N)CC2)c2nc(-c3ccc(Cl)cc3)cn12
> 30 µM

The measurements presented in this section are drawn from ChEMBL document CHEMBL2380230.
